System: human lymphoma cell line RAMOS cells
Experiment: Cell growth inhibition test using RAMOS cell, ATP assay (CellTiter-Glo)
Assay type: cell-based
Settings: Homo sapiens, Ramos, 72 h, cultured 3 days, 50% growth inhibition concentration
Description: A cell growth inhibition test was carried out by treating human lymphoma cell line RAMOS cells with a test compound for a given period and then counting the number of viable cells by MTT assay or CellTiter-Glo Luminescent Cell Viability Assay (manufactured by Promega Corp.; hereinafter, referred to as ATP assay). […] The number of viable cells and luminescence intensity have been confirmed to correlate with each other. […] T/C % at each concentration of the test compound was determined. […]
The reader will find reported GI50 values listed item by item below.
ATTRIBUTE MEASURED: GI50 (nM)

INSERT INTO measurements (compound, val) VALUES
  ('CCOc1ccc(Cl)cc1C(=O)NCC(C)(C)CC(=O)Nc1c(CCN(C)CCF)n(C)n(-c2ccccc2)c1=O', 120),
  ('Cc1cc2cc(Cl)cc(C(=O)NCC(C)(C)CC(=O)Nc3c(CCN(C)C)n(C)n(-c4ccccc4)c3=O)c2o1', 130),
  ('CCOc1ccc(Cl)cc1C(=O)NCC(C)(C)CC(=O)Nc1c(CC(C)(C)NC)n(C)n(-c2ccccc2)c1=O', 150),
  ('CCOc1ncc(Br)cc1C(=O)NCC(C)(C)CC(=O)Nc1c(CCN(C)C)n(C)n(-c2ccccc2)c1=O', 480),
  ('[2H]C([2H])([2H])n1c(CCN(C)C)c(NC(=O)CC(C)(C)CNC(=O)c2cc(Cl)ccc2OCC)c(=O)n1-c1ccccc1', 190),
  ('CCOc1ccc(Cl)cc1C(=O)NCC(C)(C)CC(=O)Nc1c(CC(=O)OC)n(C)n(-c2ccccc2)c1=O', 130),
  ('CCOc1cc(F)c(Cl)cc1C(=O)NCC(C)(C)CC(=O)Nc1c(CCCCN(C)C)n(C)n(-c2ccccc2)c1=O', 170),
  ('CCOc1ncc(Cl)cc1C(=O)NCC(C)(C)CC(=O)Nc1c([C@@H](C)CN(C)C)n(C)n(-c2ccccc2)c1=O', 510),
  ('Cc1cc2cc(Cl)cc(C(=O)NCC(C)(C)CC(=O)Nc3c(C[C@@H](C)N(C)C)n(C)n(-c4ccccc4)c3=O)c2o1', 210),
  ('CCOc1cc(F)c(Cl)cc1C(=O)NCC(C)(C)CC(=O)Nc1c(CCN(C)CCF)n(C)n(-c2ccccc2)c1=O', 120),
  ('CCOc1ncc(Cl)cc1C(=O)NCC(C)(C)CC(=O)Nc1c(C(C)CN(C)C)n(C)n(-c2ccccc2)c1=O (centres unmarked)', 420),
  ('CCOc1ccc(Cl)cc1C(=O)NCC(C)(C)CC(=O)Nc1c(C(C)NC)n(C)n(-c2ccccc2)c1=O (centres unmarked)', 130),
  ('CCOc1ccc(Cl)cc1C(=O)NCC(C)(C)CC(=O)Nc1c(C(CN(C)C)OC)n(C)n(-c2ccccc2)c1=O (centres unmarked)', 140),
  ('CCOc1cc(F)c(Cl)cc1C(=O)NCC(C)(C)CC(=O)Nc1c(C(C)OC)n(C)n(-c2ccccc2)c1=O (centres unmarked)', 140),
  ('CCOc1ccc(Cl)cc1C(=O)NCC(C)(C)CC(=O)Nc1c(CCC(=O)N2CCCC2)n(C)n(-c2ccccc2)c1=O', 500),
  ('CCOc1ccc(Cl)cc1C(=O)NCC(C)(C)CC(=O)Nc1c(C[C@@H](C)N(C)C)n(C)n(-c2ccccc2)c1=O', 160),
  ('CCOc1ncc(Cl)cc1C(=O)NCC(C)(C)CC(=O)Nc1c(C(CN(C)C)OC)n(C)n(-c2ccccc2)c1=O (single isomer, unassigned; (-)) [Example 82]', 370),
  ('CCOc1cc(F)c(Cl)cc1C(=O)NCC(C)(C)CC(=O)Nc1c([C@@H](C)OC)n(C)n(-c2ccccc2)c1=O', 140),
  ('Cc1cc2cc(Cl)cc(C(=O)NCC(C)(C)CC(=O)Nc3c(C[C@H](C)N(C)C)n(C)n(-c4ccccc4)c3=O)c2o1', 140),
  ('CCOc1cc(F)c(Cl)cc1C(=O)NCC(C)(C)CC(=O)Nc1c(CCN(C)C)n(C)n(-c2ccccc2)c1=O', 140);
